Here the recorded glass transition temperature is given for each entry.
Parameter Measured: glass transition temperature

[[record]]
compound = "*CC(COc1ccc(C(C)(c2ccccc2)c2ccc(O*)cc2)cc1)OC(C)=O (repeat unit)"
parameter_measured = "glass transition temperature"
experimental_result = "110.00 °C"

[[record]]
compound = "*CC(*)C(=O)Oc1cccc2ccccc12 (repeat unit)"
parameter_measured = "glass transition temperature"
experimental_result = "85.00 °C"

[[record]]
compound = "*c1cc2c(cc1C)-c1cc(C)c(N3C(=O)c4ccc(-c5ccc6c(c5)C(=O)N(*)C6=O)cc4C3=O)cc1S2(=O)=O (repeat unit)"
parameter_measured = "glass transition temperature"
experimental_result = "490.00 °C"

[[record]]
compound = "*Oc1ccc(S(=O)(=O)c2ccc(Oc3ccc(C4(c5ccc(*)cc5)CCCC4)cc3)cc2)cc1 (repeat unit)"
parameter_measured = "glass transition temperature"
experimental_result = "230.00 °C"

[[record]]
compound = "*CC(*)c1c(F)c(F)c(OCC(F)(F)C(F)(F)C(F)(F)C(F)(F)C(F)(F)C(F)(F)C(F)(F)F)c(F)c1F (repeat unit)"
parameter_measured = "glass transition temperature"
experimental_result = "21.00 °C"

[[record]]
compound = "*c1ccc(Oc2c(C)cc(C(C)(C)c3cc(C)c(Oc4ccc(N5C(=O)c6ccc(Oc7ccc(C8(c9ccc(Oc%10ccc%11c(c%10)C(=O)N(*)C%11=O)cc9)CCC(c9ccccc9)CC8)cc7)cc6C5=O)cc4)c(C)c3)cc2C)cc1 (repeat unit)"
parameter_measured = "glass transition temperature"
experimental_result = "232.00 °C"

[[record]]
compound = "*C([2H])([2H])C(*)(C(=O)OC([2H])([2H])C([2H])([2H])[2H])C([2H])([2H])[2H] (repeat unit)"
parameter_measured = "glass transition temperature"
experimental_result = "94.00 °C"

[[record]]
compound = "*Oc1ccc(Oc2ccc(C(=O)c3ccc(-c4ccc(C(=O)c5ccc(*)cc5)cc4)cc3)cc2)cc1-c1ccc(S(=O)(=O)O)c(C)c1 (repeat unit)"
parameter_measured = "glass transition temperature"
experimental_result = "182.00 °C"

[[record]]
compound = "*c1ccc2c(c1)C(=O)N(c1ccc3c(c1)-c1cc(N4C(=O)c5ccc(C(*)(C(F)(F)F)C(F)(F)F)cc5C4=O)ccc1C3)C2=O (repeat unit)"
parameter_measured = "glass transition temperature"
experimental_result = "394.00 °C"

[[record]]
compound = "*CCCCCCCCNC(=O)c1ccc(C(=O)N*)cc1 (repeat unit)"
parameter_measured = "glass transition temperature"
experimental_result = "123.00 °C"

[[record]]
compound = "*CC(=O)C(*)c1ccccc1 (repeat unit)"
parameter_measured = "glass transition temperature"
experimental_result = "110.00 °C"

[[record]]
compound = "*C(=O)Nc1ccc(Oc2ccc(-c3ccc(Oc4ccc(NC(=O)c5ccc6c(c5)C(=O)N(c5ccc(Oc7cccc8c(Oc9ccc(N%10C(=O)c%11ccc(*)cc%11C%10=O)cc9)cccc78)cc5)C6=O)cc4)cc3)cc2)cc1 (repeat unit)"
parameter_measured = "glass transition temperature"
experimental_result = "310.00 °C"

[[record]]
compound = "*CCC(C(=O)OC)C(*)C(=O)OC (repeat unit)"
parameter_measured = "glass transition temperature"
experimental_result = "31.20 °C"

[[record]]
compound = "*c1ccc(Oc2ccc(S(=O)(=O)c3ccc(Oc4ccc(C5(*)OC(=O)c6ccccc65)cc4C)cc3)cc2)c(C)c1 (repeat unit)"
parameter_measured = "glass transition temperature"
experimental_result = "245.00 °C"

